Each recorded value in this set is attributed to patent US20110086770A1.

Molecular target: T1, recombinant human IL-23R/Fc chimera (R&D Systems) (human, UniProt Q5VWK5 24-353)
T1 construct: bought; also called human IL-23R/Fc fusion protein; rhIL23RFc
T1 sequence (looked up): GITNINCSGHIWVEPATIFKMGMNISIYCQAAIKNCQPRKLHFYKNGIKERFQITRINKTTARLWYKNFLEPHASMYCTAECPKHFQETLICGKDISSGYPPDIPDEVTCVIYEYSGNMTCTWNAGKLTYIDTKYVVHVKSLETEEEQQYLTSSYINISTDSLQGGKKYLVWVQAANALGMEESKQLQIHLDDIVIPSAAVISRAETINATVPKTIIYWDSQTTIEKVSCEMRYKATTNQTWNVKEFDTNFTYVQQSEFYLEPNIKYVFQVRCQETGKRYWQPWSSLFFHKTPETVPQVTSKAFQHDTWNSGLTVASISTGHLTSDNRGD
Assay: competition ELISA against IL-23
Reported property: Ratio IC50 to 056-53.H4E IC50 (ratio)
Report only the number, with the unit ratio understood.

Observe how each entry below is paired with its result.
{"Binder": "105-61-4G5 ATRIMER (designed binder, not shown: C-terminal tag: Myc/His6 (pANA4) or HA-StrepII (pANA10); A Ser left at the ompA junction may also sit at the N-terminus) EPPTQKPKKIVNAKKDVVNTKMFEELKSRLDTLAQEVALLKEQQALQTVCLKGTKVHMKCFLAFTQTKTFHEASEDCISRGGTLSTPQTGSENDALYEYLRQSVGNEAEIWLGLNGSPLTNTWVDMTGARIAYKNWETEITAQPDGGFGVFGENCAVLSGAANGKWFDKRCRDQLPYICQFGIV", "Meas value": 1}
{"Binder": "105-08-2H3 ATRIMER (designed binder, Homotrimer of the given chain (ATRIMER complex).) EPPTQKPKKIVNAKKDVVNTKMFEELKSRLDTLAQEVALLKEQQALQTVCLKGTKVHMKCFLAFTQTKTFHEASEDCISRGGTLSTPQTGSENDALYEYLRQSVGNEAEIWLGLNGSSLTNTWVDMTGARIAYKNWETEITAQPDGGWGYFGENCAVLSGAANGKWFDKRCRDQLPYICQFGIV", "Meas value": 2.9}

Now look at this one.
Query block: Need Ratio IC50 to 056-53.H4E IC50, item 105-08-1C3 ATRIMER (designed binder) EPPTQKPKKIVNAKKDVVNTKMFEELKSRLDTLAQEVALLKEQQALQTVCLKGTKVHMKCFLAFTQTKTFHEASEDCISRGGTLSTPQTGSENDALYEYLRQSVGNEAEIWLGLNGSQLTDTWVDMTGARIAYKNWETEITAQPDGGWGYFGENCAVLSGAANGKWFDKRCRDQLPYICQFGIV
Result block: 3.6
